# assay: TEM of peptide assemblies (fibril formation / assembly)
# Format: physicochemical
# test-settings: 1 mg/mL in PBS
Where no end group is shown, it is not given here. The star is where a group is joined. Palmitoyl = CCCCCCCCCCCCCCCC(=O)*

# substance, TEM morphology (in words)
rows = [
    ("KGVPGVGK-NH2 [Pat44]", "fibrillar morphologies"),
    ("C16-thioester-CVVVAAAKKK-NH2 (C(Palmitoyl)VVVAAAKKK-NH2; N-terminus assumed; SMILES CCCCCCCCCCCCCCCC(=O)SC[C@H](N)C(=O)N[C@H](C(=O)N[C@H](C(=O)N[C@H](C(=O)N[C@@H](C)C(=O)N[C@@H](C)C(=O)N[C@@H](C)C(=O)N[C@@H](CCCCN)C(=O)N[C@@H](CCCCN)C(=O)N[C@@H](CCCCN)C(N)=O)C(C)C)C(C)C)C(C)C) [Pat3]", "fibrillar morphologies"),
]

----------
Hi there, I'd appreciate the recorded aggregate number increases for every entry that follows.
# Test system: HeLa cells
# assay: Confocal laser scanning microscopy and degradation study with PA library and HeLa cells
# Assay type: cell-based
# test-settings: d3 relative to d0
# Protocol: In general, the procedure for determine whether a PA is degraded or not, is conducted by confocal laser scanning microscopy of Proteostat stained PAs which are added to Hela cells (2 µg peptide added to 20.000 cells). Microscopy is conducted at day 0 (d0, after 30 min of incubation) and at day 3 (d3, after 72 h of incubation). The number of aggregates >10 µm^2 is counted via 3D object counter in imaged in an area of 1008 µm × 1008 µm. […]
Where a SMILES comes first, the peptide text is derived from it. [ ]: non-standard residue; d: D form. The star is where a group is joined. Palmitoyl = CCCCCCCCCCCCCCCC(=O)*
Answer by giving the amount and then stating its unit.

Example entries begin here.
# molecule, measured-result
data = [
    ("CCCCCCCCCCCCCCCC(=O)N[C@@H](CCCCN)C(=O)N[C@@H](Cc1ccc(O)cc1)C(=O)N[C@H](C(=O)N[C@@H](Cc1c[nH]cn1)C(=O)N[C@@H](CCC(N)=O)C(=O)N[C@@H](CC(N)=O)C(=O)N[C@@H](Cc1ccc(O)cc1)C(=O)N[C@H](C(=O)N[C@@H](CCCCN)C(=O)N[C@@H](C)C(=O)N[C@@H](CC(C)C)C(=O)N[C@@H](C)C(=O)NCC(=O)N[C@@H](CCCCN)C(=O)N[C@@H](CC(C)C)C(=O)N[C@H](C(N)=O)C(C)C)[C@@H](C)O)[C@@H](C)CC [Pat26] (Palmitoyl-KYIHQNYTKALAGKLV-NH2)", "110%"),
    ("CCCCCCCCCCCCCCCC(=O)N[C@@H](C(=O)N[C@@H](C(=O)N[C@@H](C(=O)N[C@H](C)C(=O)N[C@H](C)C(=O)N[C@H](C)C(=O)N[C@H](CCCCN)C(=O)N[C@H](CCCCN)C(=O)N[C@H](CCCCN)C(N)=O)C(C)C)C(C)C)C(C)C [Pat14, C16-vvvaaakkk-NH2] (Palmitoyl-[dV][dV][dV][dA][dA][dA][dK][dK][dK]-NH2)", "116%"),
]

Give aggregate number increases for each listed item.
1. CCCCCCCCCCCCCCCC(=O)N[C@@H](CCCCN)C(=O)N[C@H](C(=O)N[C@H](C(=O)N[C@@H](CO)C(=O)N[C@@H](Cc1ccccc1)C(=O)N[C@@H](CCCCN)C(N)=O)[C@@H](C)CC)[C@@H](C)CC [Pat32, C16-KIISFK-NH2] (Palmitoyl-KIISFK-NH2)
2. CCCCCCCCCCCCCCCC(=O)N[C@@H](C)C(=O)N[C@@H](CCC(N)=O)C(=O)N[C@@H](C)C(=O)N[C@@H](CCCCN)C(=O)N[C@@H](C)C(=O)N[C@@H](CCCCN)C(N)=O [Pat16, C16-AQAKAK-NH2] (Palmitoyl-AQAKAK-NH2)

Result:
1: 84%; 2: 83%

----------
Hi there, I'd appreciate the recorded β-sheet amount for every entry that follows.
# assay: ATR-FT-IR determination of β-sheet content
# Type: physicochemical
# test-settings: 1 mg/mL in PBS lyophilized; integral at 1630 cm^-1 relative to 1650-1700 cm^-1
Where a SMILES comes first, the peptide text is derived from it. [ ]: non-standard residue; d: D form. The star is where a group is joined. Palmitoyl = CCCCCCCCCCCCCCCC(=O)*; Nonanoyl = CCCCCCCCC(=O)*
Answers are plain numbers, in %.

Example entries begin here.
# molecule, unit-tag, β-sheet amount
measured = [
    ("CCCCCCCCC(=O)N[C@H](C(=O)N[C@H](C(=O)N[C@H](C(=O)N[C@@H](C)C(=O)N[C@@H](C)C(=O)N[C@@H](C)C(=O)N[C@@H](CCCCN)C(=O)N[C@@H](CCCCN)C(=O)N[C@@H](CCCCN)C(N)=O)C(C)C)C(C)C)C(C)C [Pat8] (Nonanoyl-VVVAAAKKK-NH2)", "%", 49),
    ("CCCCCCCCCCCCCCCC(=O)N[C@@H](C)C(=O)N[C@@H](CCC(N)=O)C(=O)N[C@@H](C)C(=O)N[C@@H](CCCCN)C(=O)N[C@@H](C)C(=O)N[C@@H](CCCCN)C(N)=O [Pat16, C16-AQAKAK-NH2] (Palmitoyl-AQAKAK-NH2)", "%", 50),
]

Turning now to a further molecule:
Ask: What value of measured β-sheet amount is listed for CCCCCCCCCCCCCCCC(=O)N[C@@H](C(=O)N[C@@H](C(=O)N[C@@H](C(=O)N[C@H](C)C(=O)N[C@H](C)C(=O)N[C@H](C)C(=O)N[C@H](CCCCN)C(=O)N[C@H](CCCCN)C(=O)N[C@H](CCCCN)C(N)=O)C(C)C)C(C)C)C(C)C [Pat14, C16-vvvaaakkk-NH2] (Palmitoyl-[dV][dV][dV][dA][dA][dA][dK][dK][dK]-NH2) ?
Result: 49

----------
# assay: TEM of peptide assemblies (fibril formation / assembly)
# Assay type: physicochemical
# test-settings: peptide amphiphile
Where a SMILES comes first, the peptide text is derived from it. [ ]: non-standard residue; d: D form. The star is where a group is joined. Palmitoyl = CCCCCCCCCCCCCCCC(=O)*
observation-type: Assembly

Example entries begin here.
# compound, Assembly
measured = [
    ("CCCCCCCCCCCCCCCC(=O)N[C@H](C(=O)N[C@H](C(=O)N[C@@H](CCC(N)=O)C(=O)N[C@@H](CCCCN)C(=O)N[C@H](C(=O)N[C@@H](CCCCN)C(N)=O)[C@@H](C)CC)[C@@H](C)CC)[C@@H](C)CC [Pat15, C16-IIQKIK-NH2] (Palmitoyl-IIQKIK-NH2)", "Yes"),
    ("CCCCCCCCCCCCCCCC(=O)N[C@@H](C)C(=O)NCC(=O)NCC(=O)N[C@@H](CCCNC(=N)N)C(=O)N[C@H](C(=O)N[C@@H](CCCCN)C(N)=O)C(C)C [Pat18, C16-AGGRVK-NH2] (Palmitoyl-AGGRVK-NH2)", "Yes"),
    ("CCCCCCCCCCCCCCCC(=O)N[C@@H](C)C(=O)N[C@@H](CCC(N)=O)C(=O)N[C@@H](C)C(=O)N[C@@H](CCCCN)C(=O)N[C@@H](C)C(=O)N[C@@H](CCCCN)C(N)=O [Pat16, C16-AQAKAK-NH2] (Palmitoyl-AQAKAK-NH2)", "Yes"),
    ("CCCCCCCCCCCCCCCC(=O)N[C@@H](C(=O)N[C@@H](C(=O)N[C@@H](C(=O)N[C@H](C)C(=O)N[C@H](C)C(=O)N[C@H](C)C(=O)N[C@H](CCCCN)C(=O)N[C@H](CCCCN)C(=O)N[C@H](CCCCN)C(N)=O)C(C)C)C(C)C)C(C)C [Pat14, C16-vvvaaakkk-NH2] (Palmitoyl-[dV][dV][dV][dA][dA][dA][dK][dK][dK]-NH2)", "Yes"),
]

Turning now to a further compound:
Ask: What value of measured Assembly is listed for CCCCCCCCCCCCCCCC(=O)N[C@@H](CCCCN)C(=O)NCC(=O)N[C@H](C(=O)N1CCC[C@H]1C(=O)NCC(=O)N[C@H](C(=O)NCC(=O)N[C@@H](CCCCN)C(N)=O)C(C)C)C(C)C [Pat25] (Palmitoyl-KGVPGVGK-NH2) ?
Result: No

The measured values listed here are drawn from patent EP4458977A1.
